- Measurement Protocol: GST conjugation of 1,2-epoxy-3-(p-nitrophenoxy)propane with glutathione (HPLC)
- Format: biochemical
- Condition: purified enzyme, 0.4 mM electrophilic substrate, 4 mM glutathione, 0.1 M MOPS pH 7.0
Parameter Measured: activity of enzyme with 1,2-epoxy-3-(p-nitrophenoxy)propane (nmol/min/mg)

# Molecule, Unit Symbol, Observed Measurement
records = [
    ("ceb5.pk0049.a11: maize class III GST enzyme encoded by cDNA clone, expressed in E. coli (protein) MAEEKKQGLQLLDFWVSPFGQRCRIALDEKGLAYEYLEQDLRNKSELLLRANPVHKKIPVLLHDGRPVCESLVIVQYLDEAFPEAAPALLPADPYARAQARFWADYVDKKLYDCGTRLWKLKGDGQAQARAEMVEILRTLEGALGDGPFFGGDALGFVDVALVPFTSWFLAYDRFGGVSVEKECPRLAAWAKRCAERPSVAKNLYPPEKVYDFVCGMKKRLGIE", "nmol/min/mg", 30),
]

Sourced from patent US6096504A
